MEASURED ON: NMDA receptor glycine site (Rattus norvegicus, UniProt P35439)
Construct: The rat brain membranes used in the experiments were obtained from Analytical Biological Services Inc; tissue Analytical Biological Services Inc; host or cells: rat brain membranes (cerebral cortex and hippocampus, male Sprague Dawley rats)
PROTOCOL SUMMARY: Test A: Inhibition of binding of [3H]-MDL105,519 to brain membranes
STATED CONDITIONS: inhibition of 1.2 nM [3H]MDL105,519 binding, brain membranes (rat or human not given)
Protocol: Test A: Inhibition of Binding of [^3H]-MDL105,519: Binding of compounds to the NMDA receptor glycine site may be assessed by measuring the ability of test compounds to inhibit the binding of tritiated MDL105,519 to brain membranes bearing the receptor. […] [^3H]MDL105,519 (72 Ci/mmol) was purchased from Amersham. […] Non specific binding was determined by using 100 μM of unlabeled MDL105,519. […]
Recorded measurements of Ki, one per entry

Some solved entries appear below for comparison.
Cc1cc(C)c(-n2nc(O)c3[nH]c4cc(Cl)ccc4c(=O)c3c2=O)c(C)c1 [Ex. 1]    39.9 nM
COCCN(CCOC)C(=O)c1cccc(Cn2nc(O)c3[nH]c4cc(Cl)ccc4c(=O)c3c2=O)c1 [Ex. 27]    191 nM
CSc1ccccc1Cn1nc(O)c2nc3cc(Cl)ccc3c(O)c2c1=O [Ex. 7]    111 nM
O=C(Nc1cccc(Cn2nc(O)c3[nH]c4cc(Cl)ccc4c(=O)c3c2=O)c1)N1CCCC1 [Ex. 15]    15.6 nM

Request: State measured Ki of the compound O=c1c2ccc(Cl)cc2[nH]c2c(O)nn(Cc3ccc4nc[nH]c4c3)c(=O)c12 [Ex. 5, methanesulfonate] with NMDA receptor glycine site (Rattus norvegicus, UniProt P35439).
Response: 117 nM

Request: State measured Ki of the compound O=C(Nc1ccc(Cn2nc(O)c3[nH]c4cc(Cl)ccc4c(=O)c3c2=O)cc1)N1CCCC1 [Ex. 13] with NMDA receptor glycine site (Rattus norvegicus, UniProt P35439).
Response: 67.5 nM

Data provenance is patent US20030181449A1.
